Hello, the source for this data is patent US20100267561A1, in case you need it.

Catalogue of Plant response rating, Crabgrass, Large readings, one per entry.
Tested on: large crabgrass (Digitaria sanguinalis)
Assay: Test A pre-/postemergence plant response
Type: in vivo
Conditions: Preemergence, 31 g ai/ha; 0 to 100 scale, 0 is no effect, 100 is complete control
measuredParameter: Plant response rating, Crabgrass, Large

INSERT INTO assay_data (smilesentry, reported) VALUES
  ('CCc1cc(-c2ccc(Br)cc2)nn1-c1c(O)c(OC)nn(C)c1=O', 70),
  ('CCc1cc(-c2ccc(Cl)cc2)nn1-c1c(OC(=O)OC(C)C)cnn(C)c1=O', 80),
  ('CCc1cc(-c2ccc(Cl)cc2)nn1-c1c(OC(=O)C(C)(C)C)cnn(C)c1=O', 70),
  ('COC(=O)Oc1cnn(C)c(=O)c1-n1nc(-c2ccc(Cl)cc2)cc1C', 90),
  ('Cc1cc(-c2ccc(Cl)cc2)nn1-c1c(OC(=O)OCC(C)C)cnn(C)c1=O', 50),
  ('Cc1nn(C)c(=O)c(-n2nc(-c3ccc(Br)cc3)cc2C)c1O', 70),
  ('CCc1cc(-c2ccc(C(F)(F)F)cc2)nn1-c1c(OC(=O)c2ccc(Cl)nc2)cnn(C)c1=O', 70),
  ('C#CCOC(=O)Oc1cnn(C)c(=O)c1-n1nc(-c2ccc(Cl)cc2)cc1C', 60);

###

Catalogue of Plant response rating, Blackgrass readings, one per entry.
Test system: blackgrass (Alopecurus myosuroides)
Experiment: Test B pre-/postemergence plant response
Format: in vivo
Conditions: Preemergence, 31 g ai/ha; 0 to 100 scale, 0 no effect, 100 complete control
Source text: […] Plant species in the flooded paddy test consisted of rice (Oryza sativa), umbrella sedge (Cyperus difformis), ducksalad (Heteranthera limosa) and barnyardgrass (Echinochloa crus-galli) grown to the 2-leaf stage for testing. […] Treated plants and controls were maintained in a greenhouse for 13 to 15 days, after which time all species were compared to controls and visually evaluated. […]
measuredParameter: Plant response rating, Blackgrass

INSERT INTO measurements (smilesentry, reported) VALUES
  ('Cc1cc(-c2ccc(Cl)cc2)nn1-c1c(OS(C)(=O)=O)cnn(C)c1=O', 100),
  ('Cc1cc(-c2ccc(Cl)cc2)nn1-c1c(OC(=O)C(C)C)cnn(C)c1=O', 100),
  ('Cc1cc(-c2ccc(C(F)(F)F)cc2)nn1-c1c(OC(=O)C(C)(C)C)cnn(C)c1=O', 60),
  ('Cc1cc(-c2ccc(Cl)cc2)nn1-c1c(OS(=O)(=O)c2ccccc2[N+](=O)[O-])cnn(C)c1=O', 98),
  ('CCc1cc(-c2ccc(Cl)cc2)nn1-c1c(OS(C)(=O)=O)cnn(C)c1=O', 90);

###

Catalogue of Plant response rating, Wheat readings, one per entry.
Tested on: wheat (Triticum aestivum)
Assay: Test B pre-/postemergence plant response
Type: in vivo
Conditions: Preemergence, 16 g ai/ha; scale 0 to 100 (0 no effect, 100 complete control)
measuredParameter: Plant response rating, Wheat

INSERT INTO assay_data (smilesentry, reported) VALUES
  ('Cc1cc(-c2ccc(Cl)cc2)nn1-c1c(OS(C)(=O)=O)cnn(C)c1=O', 0),
  ('CCc1cc(-c2ccc(C(F)(F)F)cc2)nn1-c1c(OS(C)(=O)=O)cnn(C)c1=O', 10),
  ('CCc1cc(-c2ccc(Cl)cc2)nn1-c1c(OS(C)(=O)=O)cnn(C)c1=O', 30),
  ('Cc1cc(-c2ccc(Cl)cc2)nn1-c1c(OC(=O)C(C)C)cnn(C)c1=O', 0),
  ('Cn1ncc(O)c(-c2nn(-c3ccc(Cl)cc3)cc2Br)c1=O', 0);
